- Target of assay: human recombinant A3 receptor (Homo sapiens)
- Construct: expressed in transfected cells; host or cells: HeLa (stably transfected)
- Sequence (P0DMS8 whole entry): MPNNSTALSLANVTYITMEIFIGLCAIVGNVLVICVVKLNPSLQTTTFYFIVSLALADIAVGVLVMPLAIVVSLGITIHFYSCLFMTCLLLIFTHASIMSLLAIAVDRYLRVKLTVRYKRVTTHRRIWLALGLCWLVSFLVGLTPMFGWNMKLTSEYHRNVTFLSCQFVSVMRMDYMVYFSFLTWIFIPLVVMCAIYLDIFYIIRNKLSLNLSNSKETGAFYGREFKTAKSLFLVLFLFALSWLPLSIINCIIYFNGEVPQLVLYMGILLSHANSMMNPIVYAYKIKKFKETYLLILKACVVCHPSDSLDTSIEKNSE
- Protocol: Adenosine 3 receptor subtype competition radioligand binding assay
Measure name: Ki (µM)
Write the value in µM as a bare number.

Provide Ki value for the following compound: COc1ccc(Nc2ncc(-c3ccncn3)c(-c3ccco3)n2)cn1
4.32
